TEST_TARGET: Fes (UniProt P07332)
Sequence (P07332 whole entry, looked up): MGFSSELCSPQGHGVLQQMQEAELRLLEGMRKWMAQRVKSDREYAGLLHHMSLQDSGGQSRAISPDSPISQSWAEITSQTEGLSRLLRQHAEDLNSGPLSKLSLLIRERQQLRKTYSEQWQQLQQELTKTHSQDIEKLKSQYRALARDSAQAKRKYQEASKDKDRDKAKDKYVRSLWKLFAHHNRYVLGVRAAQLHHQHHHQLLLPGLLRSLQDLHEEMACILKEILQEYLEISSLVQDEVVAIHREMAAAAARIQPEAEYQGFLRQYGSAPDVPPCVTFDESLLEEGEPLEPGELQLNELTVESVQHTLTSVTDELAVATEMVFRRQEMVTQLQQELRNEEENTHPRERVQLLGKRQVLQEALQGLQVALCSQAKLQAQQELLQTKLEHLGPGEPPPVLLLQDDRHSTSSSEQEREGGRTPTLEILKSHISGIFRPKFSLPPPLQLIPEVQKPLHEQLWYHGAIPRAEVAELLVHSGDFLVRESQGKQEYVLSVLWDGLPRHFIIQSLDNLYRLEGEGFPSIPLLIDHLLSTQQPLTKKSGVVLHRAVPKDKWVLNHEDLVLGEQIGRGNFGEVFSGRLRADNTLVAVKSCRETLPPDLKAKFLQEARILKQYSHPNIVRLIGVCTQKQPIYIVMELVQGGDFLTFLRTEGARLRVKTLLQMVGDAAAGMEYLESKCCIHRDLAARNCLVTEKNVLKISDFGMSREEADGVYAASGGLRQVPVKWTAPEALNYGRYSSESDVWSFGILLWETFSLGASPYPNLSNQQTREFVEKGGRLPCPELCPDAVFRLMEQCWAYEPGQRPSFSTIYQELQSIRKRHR
ASSAY_TEXT: phosphorylation enrichment, bacterial display (enrichment ratio); higher = better substrate or ligand; peptides without Tyr show the background;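 also: 11-residue human phosphosite peptides and single-mutation variants displayed on the E. coli surface, counted by deep sequencing, each peptide's frequency after selection divided by its frequency in the unselected input library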;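 also: frequency after pTyr selection over input frequency; kinase dosed for 20-30% of maximal phosphorylation in three min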
I would appreciate it if you labelled entries TRUE when phosphorylation enrichment is 1 or higher, otherwise FALSE.

SEQUENCE_CONTENT	ASSIGNED_CATEGORY
RGFRVYFTPDS [PTPRF_Y450_YF]	TRUE
PIDLFYLMDLS [ITGB2_Y131_YF]	TRUE
QQLVAYYSKHA [SRC_Y232]	TRUE
TFMKKYPKVFL [CNBD1_Y70_Q69K]	FALSE
TGDFGYRTPGY [TNS2_Y668_A670T]	FALSE

API: above_or_equal(metric=phosphorylation enrichment, cutoff=1) for item YCRHNYGVGES [HLA-DRB1_Y112_V115G]
FALSE

API: above_or_equal(metric=phosphorylation enrichment, cutoff=1) for item AGRSGYDNREI [BCL2_Y9_T7S]
FALSE

API: above_or_equal(metric=phosphorylation enrichment, cutoff=1) for item RSACTYLASHL [PLK3_Y615]
FALSE

API: above_or_equal(metric=phosphorylation enrichment, cutoff=1) for item GGYTWYCDGKK [PROS1_Y266_C265W]
TRUE
